- Test system: MDA-MB-435
Result category, one only: class 1 = active, class 0 = inactive

(Q) Record lookup: outcome of this test for "O=C(Nc1cccc([N+](=O)[O-])c1)c1cccc(C(=O)Nc2cccc([N+](=O)[O-])c2)c1" ?
(A) class 0

(Q) What is the recorded call for this molecule in the test? "Cc1cc(I)cc(CN(C)CCCN2CCC(C)CC2)c1O"
(A) class 0

(Q) Test call for this molecule, please: "CCCCCCC(=O)NC1=C(N2CC2)C(=O)C(NC(=O)CCCCCC)=C(N2CC2)C1=O"
(A) class 0

(Q) Field: outcome | Entry: "COc1cc(OC)c(/C=C/C(=O)c2c(OC)cc(OC)cc2OC)c(OC)c1"
(A) class 1

(Q) Fill in: this test's call for "CCC[CH2][Sn]1([CH2]CCC)[O]C(=O)c2cccc([N+](=O)[O-])c2C(=O)[O]1" is ___
(A) class 0

(Q) How did this test come out for "Nc1nc(-c2ccc3c(c2)/C(=C\c2cc(Br)c(O)c(Br)c2)C(=O)N3)cs1" ?
(A) class 0

(Q) Which outcome was assigned to "COc1nn(C)cc1Nc1nccc(-c2c[nH]c3c(NC(=O)[C@@H](C)N4CCN(C)CC4)cccc23)n1" in this test?
(A) class 0

(Q) What is the recorded call for this molecule in the test? "CCN1CCN(C(=O)[C@]23CC[C@@H](C)[C@H](C)[C@@H]2C2=CC[C@@H]4[C@@]5(C)CCC(=O)C(C)(C)[C@@H]5CC[C@@]4(C)[C@]2(C)CC3)CC1"
(A) class 0

(Q) Check the results log: what was the call for "CCOC(=O)N1CCC(N=C2CSc3nnc(-c4cc(C(F)(F)F)cc(C(F)(F)F)c4)n3N2)CC1" ?
(A) class 0

* * *

- System: COLO 205 colon
- measurement.protocol: NCI tumour cell line growth inhibition, 48 h
Where a SMILES comes first, the peptide text is derived from it. [ ]: non-standard residue; d: D form.
So basically, the class depends on measured TGI, and the ranges are b0 = under 10 µM, b1 = from 10 µM up to 30 µM, b2 = 30 µM and over

(Q) Place this compound in its band: "CCN(CC)CCOc1nc2ccccc2c2c1-c1ccc(OC)cc1C2=O"
(A) b0

(Q) Class? Entry: CC(C)C[C@H](NC(=O)[C@H](CC(C)C)NC(=O)[C@@H](Cc1c[nH]c2ccccc12)NC(=O)[C@H](Cc1ccccc1)NC(=O)[C@@H](Cc1c[nH]c2ccccc12)NC(=O)[C@H](CCC(N)=O)NC(=O)[C@@H](CCC(N)=O)NC(=O)[C@@H]1CCCN1C(=O)[C@@H](CCCCN)NC(=O)[C@H]1CCCN1C(=O)[C@H](N)CCCN=C(N)N)C(N)=O (H-[dR][dP][dK]P[dQ]Q[dW]F[dW]LL-NH2)
(A) b2

(Q) Quick check: band for "CCOc1ccc2c(c1)C(/C(C(Cl)=C(Cl)Cl)=[N+](/[O-])OC(=O)c1ccccc1)=N2"
(A) b2

(Q) # classify by TGI band: O=C(CC(=O)N1N=C(c2ccccc2)C(N=Nc2ccc(S(=O)(=O)CCOS(=O)(=O)O)cc2)C1=O)Nc1ccc(Cl)cc1 (stereo not drawn)
(A) b2

(Q) Band for COc1ccc(C(C2=C(O)CC(C)OC2=O)C2=C(O)CC(C)OC2=O)cc1 (stereo not drawn) ?
(A) b2

(Q) Hello team, could you let me know which band the following compound falls into: "COc1cccc(N2CC(O)=C(c3nc4ccccc4s3)C2=N)c1"
(A) b2

(Q) Form: Item = C1=CC2C(C3CN(c4ccccc4)N=C13)C1C3C4C=CC21C=CC43 (stereo not drawn) ; Class = ?
(A) b2

(Q) Kindly identify the class of "COc1ccc(NC(=O)CSC(=O)c2ccccc2)c(SCCSSCCSc2cc(OC)ccc2NC(=O)CSC(=O)c2ccccc2)c1" .
(A) b1

(Q) # bin label for CCC(=O)OCOc1ccc(/C=C2\CCC(CN(C)C)C2=O)cc1 (stereo not drawn)
(A) b1

(Q) Which bin should I file CC1Cc2c(Cl)ncnc2N(C)c2ccccc21 (stereo not drawn) under?
(A) b0

(Q) Bin this entry: "O/N=C1\C/C(=N\O)c2c(Br)sc(Br)c21"
(A) b2

(Q) Pick a category. Item: "Cc1ccc2sc3c(NCCCN)nc4ccccc4c3c(=O)c2c1"
(A) b0

(Q) Classify this compound: Cc1cn(C2CC(O)C(Cn3nncc3Cn3nc(Br)c(=O)[nH]c3=O)O2)c(=O)[nH]c1=O (stereo not drawn)
(A) b2

(Q) Entry "N=C1C=CC(=C(c2ccc(N)cc2)c2ccc(N)cc2)C=C1" belongs to which category?
(A) b0

(Q) Entry "Cc1cc(C)[n+]2c(c1)C=CC2" belongs to which category?
(A) b2

(Q) Record "N=C(N)SCc1nc(-c2ccc(Cl)cc2)no1" — which class?
(A) b2

(Q) Class for "Cc1cc(-c2ccccc2)nc(Nc2cc3ccccc3[nH]2)n1" ?
(A) b2

(Q) Which category fits this record: "CC1(C)CC(=O)c2c(N)n[nH]c2C1"
(A) b2

(Q) Which class does "[N-]=[N+]=C(C(=O)CN1CCCC1=O)S(=O)(=O)c1ccccc1" fall in?
(A) b2

(Q) For this compound, which bin applies? Cc1ccsc1C(NC(=O)c1ccccc1)c1cc(Cl)c2cccnc2c1O (stereo not drawn)
(A) b1

(Q) Could you place "COc1ccc(N=NC2=C(O)CCC2=O)cc1" in its proper category? Many thanks.
(A) b2

(Q) Bin? C=CC1=C(C)C(/C=c2\[nH]/c(=C/c3[nH]c(CC4NC(=O)C(C)/C4=C\C)c(C)c3CCC(=O)O)c(CC(=O)O)c2C)=NC1=O (stereo not drawn)
(A) b2

(Q) # classify by TGI band: "Cn1nc(C(F)(F)F)cc1-c1cc(Cl)c(OCc2ccc(Cl)cc2)c(-c2ccc(Cl)c(C(F)(F)F)c2)c1O"
(A) b0

(Q) Please report the category associated with "CCOC(=O)c1sc2nc(SC)nc3c2c1NCN3C" , nothing else.
(A) b2

(Q) Record "Cc1ccc(/C=C2\CCCCC2=O)cc1" — which class?
(A) b2

(Q) Which TGI band matches "Cc1cc2nc3c(C#N)c(C)c(CCCl)c(Cl)n3c2cc1C" ?
(A) b1

(Q) Could you tell me which band "N#Cc1sc2c(c1OC(=O)c1ccco1)c(=O)n(-c1ccccc1)c(=S)n2-c1ccccc1" belongs to?
(A) b2

(Q) Which TGI band matches "CC1=CC(C)=N/C(=N/S(=O)(=O)c2cc(C)c(Cl)cc2SCc2ccccc2)NN1" ?
(A) b2

(Q) Bin this entry: OC1OCC(COc2cc(Cl)c(Cl)cc2Cl)OC1O (stereo not drawn)
(A) b2

(Q) Record CSc1ccc(N2C(=O)C3c4[nH]c5ccccc5c4C4CCC(C(C)(C)C)CC4C3C2=O)cc1 (stereo not drawn) — which class?
(A) b1

(Q) Using the reported TGI, which band applies to COc1ccc(/C(=N/O)c2ccccc2C2=Nc3ccccc3C(NCc3ccccc3)O2)cc1C (stereo not drawn) ?
(A) b2

(Q) # bin lookup: classify "CCOC(=O)Cc1[nH]c(C(=O)c2ccccc2)cc1C(=O)c1ccccc1" by its TGI
(A) b2

(Q) Which band does CC1(c2ccc(F)cc2)C2C(=O)NC(=O)C1C(=O)NC2=O (stereo not drawn) fall in?
(A) b2

* * *

- Tested on: T-47D breast
- measurement.protocol: NCI tumour cell line growth inhibition, 48 h
parameter: TGI

(Q) State, in one line, measured TGI of "N=C(N)SCc1nc(-c2ccc(Cl)cc2)no1"
(A) 29.9 µM

(Q) Return TGI (reported value) for this compound: COc1cc(C2c3cccc4cccc(c34)C3CCC(=O)N32)cc(OC)c1O (stereo unspecified)
(A) > 50 µM

(Q) In one line, give reported TGI of the entry CC1=C(CCC(C)CO)O[C@H]2C[C@H]3[C@@H]4CC[C@H]5C[C@@H](O)CC[C@]5(C)[C@H]4CC(=O)[C@]3(C)[C@@H]12 (stereo partly specified) .
(A) 29.2 µM

(Q) Consider the compound "COc1ccc(C(=O)/C=C/c2ccc(OCc3cccc(C(F)(F)F)c3)c(OC)c2)cc1OC" . State its measured TGI.
(A) > 1000 µM

(Q) Give the reported TGI for this compound. Oc1c(C(c2ccc(F)cc2)N2CCCCC2)ccc2cncnc12 (stereo unspecified)
(A) 97 µM

(Q) Give recorded TGI. "CCOC(=O)c1nc2ccccc2nc1Nc1ccc(C(=O)OC)s1"
(A) > 100 µM

* * *

- System: NCI-H226 lung
- measurement.protocol: NCI tumour cell line growth inhibition, 48 h
Provide the recorded TGI for the entries that follow.

(Q) Note down TGI recorded for "N=C(N)SCc1nc(-c2ccc(Cl)cc2)no1"
(A) > 100 µM

(Q) Dear colleague, please send me the reported TGI for "Cc1cnc2c(c1)C(=O)N(c1ccc(Oc3ccccc3)cc1)S2(=O)=O" when you can.
(A) > 100 µM

(Q) Please report the measured TGI for "OCc1ccc2c(c1)CC1(Cc3ccccc3C1)C2"
(A) > 100 µM

(Q) Respond only with TGI recorded for CSc1ccc(N2C(=O)C3c4[nH]c5ccccc5c4C4CCC(C(C)(C)C)CC4C3C2=O)cc1 (centres undefined)
(A) 42.9 µM

(Q) Give recorded TGI. "C=C1C(=O)O[C@@H]2/C=C(/C)[C@@H](OC(C)=O)C[C@@H](O)/C(C)=C\[C@@H](OC(=O)[C@]3(C)O[C@@H]3C)[C@@H]12"
(A) > 100 µM

(Q) Report measured TGI; entry is "CCC(=O)NC1=C(Cl)C(=O)C(NC(=O)CC)=C(Cl)C1=O"
(A) > 62.1 µM

(Q) Fill in reported TGI for this entry: COC1C(O)C(C)OC(O[C@H]2CC[C@@]3(C)C(CC[C@@H]4[C@@H]3CC[C@]3(C)[C@@H](C(C)OC5OC(CO)C(O)C(O)C5O)CC[C@]43O)C2)C1O (some centres undefined)
(A) > 25 µM

(Q) Look up TGI of COC(=O)/C=C1\C(CO[Si](C)(C)C(C)(C)C)OC(n2cc(C)c(=O)n(C)c2=O)C1O[Si](C)(C)C(C)(C)C (centres undefined) and report it.
(A) > 100 µM

(Q) Check the records and state TGI for "CC(C)N1CC2CC(CN(C(=O)c3ccc(Cl)cc3)C2)C1"
(A) > 100 µM

Each recorded value in this set is attributed to PubChem BioAssay (NCI).
